# System: human maximum recommended daily dose, FDA database
# assay.explanation: DSSTox (FDAMDD) FDA Maximum (Recommended) Daily Dose Database
# cond: TherapeuticCategory: antiprotozoal; hits give low values
readout.type: maximum recommended daily dose (mmol/kg-bw/day)
Respond with the number and no other words.

[in] Using the record for N=C(N)c1ccc(N=NNc2ccc(C(=N)N)cc2)cc1 (tested in a mixture with another compound) , report its maximum recommended daily dose (mmol/kg-bw/day).
[out] 0.0097

[in] Using the record for Cc1ncc([N+](=O)[O-])n1CCO , report its maximum recommended daily dose (mmol/kg-bw/day).
[out] 0.195

[in] Using the record for N=C(N)c1ccc(/C=C/c2ccc(C(=N)N)cc2O)cc1 , report its maximum recommended daily dose (mmol/kg-bw/day).
[out] 0.0149

[in] Using the record for N=C(N)c1ccc(OCCCCCOc2ccc(C(=N)N)cc2)cc1 , report its maximum recommended daily dose (mmol/kg-bw/day).
[out] 0.0118

---

# Test system: human maximum recommended daily dose, FDA database
# assay.explanation: DSSTox (FDAMDD) FDA Maximum (Recommended) Daily Dose Database
# cond: TherapeuticCategory: skeletal muscle relaxant; hits give low values
# Text: The Food and Drug Administration (FDA) Center for Drug Evaluation and Research, Office of Pharmaceutical Science, Informatics and Computational Safety Analysis Staff's Maximum Recommended Daily Dose (FDAMDD) database contains values for over 1200 pharmaceuticals listed in Martindale: The Extra Pharmacopoeia (1973, 1983, and 1993) and The Physicians' Desk Reference (1995 and 1999). […]
readout.type: maximum recommended daily dose (mmol/kg-bw/day)
Respond with the number and no other words.

[in] Item: COc1ccc(CC2c3cc(OC)c(OC)cc3CC[N+]2(C)CCC(=O)OCCCCCOC(=O)CC[N+]2(C)CCc3cc(OC)c(OC)cc3C2Cc2ccc(OC)c(OC)c2)cc1OC (stereo not given) Test system: human maximum recommended daily dose, FDA database Read-out: maximum recommended daily dose (mmol/kg-bw/day) Value: ?
[out] 0.000402

[in] Item: Cc1cc(C)cc(OCC2CNC(=O)O2)c1 (stereo not given) Test system: human maximum recommended daily dose, FDA database Read-out: maximum recommended daily dose (mmol/kg-bw/day) Value: ?
[out] 0.484

[in] Item: CC[N+](CC)(CC)CCOc1cccc(OCC[N+](CC)(CC)CC)c1OCC[N+](CC)(CC)CC Test system: human maximum recommended daily dose, FDA database Read-out: maximum recommended daily dose (mmol/kg-bw/day) Value: ?
[out] 0.00224

[in] Item: Clc1ccc2nsnc2c1NC1=NCCN1 Test system: human maximum recommended daily dose, FDA database Read-out: maximum recommended daily dose (mmol/kg-bw/day) Value: ?
[out] 0.00236

[in] Item: Cc1ccccc1OCC(O)CO (stereo not given) Test system: human maximum recommended daily dose, FDA database Read-out: maximum recommended daily dose (mmol/kg-bw/day) Value: ?
[out] 0.274

---

# Tested on: human maximum recommended daily dose, FDA database
# assay.explanation: DSSTox (FDAMDD) FDA Maximum (Recommended) Daily Dose Database
# cond: TherapeuticCategory: peristaltic stimulant; hits give low values
readout.type: maximum recommended daily dose (mmol/kg-bw/day)
Respond with the number and no other words.

[in] Item: COc1cc(N)c(Cl)cc1C(=O)NC1CCN(CCCOc2ccc(F)cc2)CC1OC (stereo unspecified) Test system: human maximum recommended daily dose, FDA database Read-out: maximum recommended daily dose (mmol/kg-bw/day) Value: ?
[out] 0.00285

---

# System: human maximum recommended daily dose, FDA database
# assay.explanation: DSSTox (FDAMDD) FDA Maximum (Recommended) Daily Dose Database
# cond: TherapeuticCategory: antineoplastic; hits give low values
# From the text: The Food and Drug Administration (FDA) Center for Drug Evaluation and Research, Office of Pharmaceutical Science, Informatics and Computational Safety Analysis Staff's Maximum Recommended Daily Dose (FDAMDD) database contains values for over 1200 pharmaceuticals listed in Martindale: The Extra Pharmacopoeia (1973, 1983, and 1993) and The Physicians' Desk Reference (1995 and 1999). […]
Exercise: state measured maximum recommended daily dose (mmol/kg-bw/day) for each of the compounds provided.

[in] Using the record for COc1cc([C@@H]2c3cc4c(cc3C(O[C@@H]3O[C@@H]5CO[C@@H](C)O[C@H]5[C@H](O)[C@H]3O)C3COC(=O)[C@@H]32)OCO4)cc(OC)c1O (some centres undefined) , report its maximum recommended daily dose (mmol/kg-bw/day).
[out] 0.00459

[in] Using the record for CNNCc1ccc(C(=O)NC(C)C)cc1 , report its maximum recommended daily dose (mmol/kg-bw/day).
[out] 0.0271

[in] Using the record for Nc1nc(F)nc2c1ncn2[C@@H]1O[C@H](COP(=O)(O)O)[C@@H](O)[C@@H]1O , report its maximum recommended daily dose (mmol/kg-bw/day).
[out] 0.00185

[in] Using the record for C[C@]12C=CC(=O)C=C1CC[C@@H]1[C@@H]2CC[C@]2(C)OC(=O)CC[C@@H]12 , report its maximum recommended daily dose (mmol/kg-bw/day).
[out] 0.0139

---

# Test system: human maximum recommended daily dose, FDA database
# assay.explanation: DSSTox (FDAMDD) FDA Maximum (Recommended) Daily Dose Database
# cond: TherapeuticCategory: antispasmodic; hits give low values
So basically, if maximum recommended daily dose (mmol/kg-bw/day) comes in under 0.03 it's yes, and if it's 0.03 or more it's no.

[in] Bench note: check whether CCC(COC(=O)c1cc(OC)c(OC)c(OC)c1)(c1ccccc1)N(C)C (stereo unspecified) shows maximum recommended daily dose (mmol/kg-bw/day) below 0.03
[out] yes

[in] Bench note: check whether CC[N+]1(CC)CCC(=C(c2ccccc2)c2ccccc2)C1C (stereo unspecified) shows maximum recommended daily dose (mmol/kg-bw/day) below 0.03
[out] yes

[in] Bench note: check whether CCN(CCCCOC(=O)c1ccc(OC)c(OC)c1)C(C)Cc1ccc(OC)cc1 (stereo unspecified) shows maximum recommended daily dose (mmol/kg-bw/day) below 0.03
[out] yes

[in] Bench note: check whether O=C(OC1CC2CCC(C1)[N+]21CCCC1)C(O)(c1ccccc1)c1ccccc1 (stereo unspecified) shows maximum recommended daily dose (mmol/kg-bw/day) below 0.03
[out] yes

[in] Bench note: check whether Cc1c(-c2ccccc2)oc2c(C(=O)OCCN3CCCCC3)cccc2c1=O shows maximum recommended daily dose (mmol/kg-bw/day) below 0.03
[out] no

[in] Bench note: check whether CCOc1ccc(Cc2nccc3cc(OCC)c(OCC)cc23)cc1OCC shows maximum recommended daily dose (mmol/kg-bw/day) below 0.03
[out] yes

---

# Tested on: human maximum recommended daily dose, FDA database
# assay.explanation: DSSTox (FDAMDD) FDA Maximum (Recommended) Daily Dose Database
# cond: TherapeuticCategory: antiulcerative; anti infective; hits give low values
readout.type: maximum recommended daily dose (mmol/kg-bw/day)
Respond with the number and no other words.

[in] Using the record for Cc1c(OCC(F)(F)F)ccnc1CS(=O)c1nc2ccccc2[nH]1 (stereo unspecified) , report its maximum recommended daily dose (mmol/kg-bw/day).
[out] 0.00135

---

# Test system: human maximum recommended daily dose, FDA database
# assay.explanation: DSSTox (FDAMDD) FDA Maximum (Recommended) Daily Dose Database
# cond: TherapeuticCategory: antiosteoporotic; Ca regulator; Ca channel blocker; hits give low values
readout.type: maximum recommended daily dose (mmol/kg-bw/day)
Respond with the number and no other words.

[in] Using the record for O=P(O)(O)C(O)(Cc1cccnc1)P(=O)(O)O , report its maximum recommended daily dose (mmol/kg-bw/day).
[out] 0.000294

---

# System: human maximum recommended daily dose, FDA database
# assay.explanation: DSSTox (FDAMDD) FDA Maximum (Recommended) Daily Dose Database
# cond: TherapeuticCategory: topical antifungal; hits give low values
readout.type: maximum recommended daily dose (mmol/kg-bw/day)
Respond with the number and no other words.

[in] Using the record for NC(=O)OCC(O)COc1ccc(Cl)cc1 (stereo not drawn) , report its maximum recommended daily dose (mmol/kg-bw/day).
[out] 0.163

[in] Using the record for Clc1ccc(COC(Cn2ccnc2)c2ccc(Cl)cc2Cl)c(Cl)c1 (stereo not drawn) , report its maximum recommended daily dose (mmol/kg-bw/day).
[out] 0.144

[in] Using the record for CN(C/C=C/C#CC(C)(C)C)Cc1cccc2ccccc12 , report its maximum recommended daily dose (mmol/kg-bw/day).
[out] 0.0926

---

# Test system: human maximum recommended daily dose, FDA database
# assay.explanation: DSSTox (FDAMDD) FDA Maximum (Recommended) Daily Dose Database
# cond: TherapeuticCategory: antiemetic; antipsychotic; hits give low values
# Source text: The Food and Drug Administration (FDA) Center for Drug Evaluation and Research, Office of Pharmaceutical Science, Informatics and Computational Safety Analysis Staff's Maximum Recommended Daily Dose (FDAMDD) database contains values for over 1200 pharmaceuticals listed in Martindale: The Extra Pharmacopoeia (1973, 1983, and 1993) and The Physicians' Desk Reference (1995 and 1999). […]
readout.type: maximum recommended daily dose (mmol/kg-bw/day)
Respond with the number and no other words.

[in] Item: CN(C)CCCN1c2ccccc2Sc2ccc(Cl)cc21 Test system: human maximum recommended daily dose, FDA database Read-out: maximum recommended daily dose (mmol/kg-bw/day) Value: ?
[out] 0.0524
